Ref: patent US20250223359A1

# system-under-test: T1, Human CD2 (recombinant extracellular domain, Avi-tagged) (human, UniProt P06729 25-209, site selectively biotinylated during expression (C-terminal Avi-Tag, BirA co-transfection))
# T1 construct: Produced in HEK293 cells; also called recombinant human CD2
# T1 sequence: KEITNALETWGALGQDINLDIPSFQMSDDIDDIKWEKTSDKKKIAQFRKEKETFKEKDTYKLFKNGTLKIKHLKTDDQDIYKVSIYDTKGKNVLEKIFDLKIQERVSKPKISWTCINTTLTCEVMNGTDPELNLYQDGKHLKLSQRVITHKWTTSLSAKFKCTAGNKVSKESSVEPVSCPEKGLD
# test-summary: ITC; 100 uM CD2 titrated into 10 uM CD58 variant in HBS

binder	n (binding stoichiometry)
CD58 IgV V54C_G88C (ligand, Disulfide-stabilized variant) SQQIYGVVYGNVTFHVPSNVPLKECLWKKQKDKVAELENSEFRAFSSFKNRVYLDTVSCSLTIYNLTSSDEDEYEMESPNITDTMKFFLYVLESGGGGSHHHHHHHH	0.83
CD58 Full ECD (ligand) SQQIYGVVYGNVTFHVPSNVPLKEVLWKKQKDKVAELENSEFRAFSSFKNRVYLDTVSGSLTIYNLTSSDEDEYEMESPNITDTMKFFLYVLESLPSPTLTCALTNGSIEVQCMIPEHYNSHRGLIMYSWDCPMEQCKRNSTSIYFKMENDLPQKIQCTLSNPLFNTTSSIILTTCIPSSGHSRHRGGGGSHHHHHHHH	0.92
